// provenance: patent US12377035B2

System: human dermal fibroblasts (HDFa)
Assay: MTT cell viability assay on dermal fibroblasts
Type: cell-based
Details: HDFa, 200 μM, 24 hours

>  <substance>
Ac-WEQEFLRR-NH2 [SEQ ID NO: 5 acetyl, WEQEFLRR]

>  <% inhibition cell viability / %>
14.7

$$$$
>  <substance>
Ac-MQVWLRMWIDYRAT-NH2 [SEQ ID NO: 2 acetyl, MQVWLRMWIDYRAT]

>  <% inhibition cell viability / %>
24.6

$$$$
>  <substance>
Ac-LRVQMVNMFL-NH2 [SEQ ID NO: 4 acetyl, LRVQMVNMFL]

>  <% inhibition cell viability / %>
22.9

$$$$
>  <substance>
Ac-HYWRELQYR-NH2 [SEQ ID NO: 1 acetyl, HYWRELQYR]

>  <% inhibition cell viability / %>
2.9

$$$$
